Biological target: human muscarinic M4 receptor (Homo sapiens)
Construct: expressed in transfected cells
Sequence (P08173 whole entry): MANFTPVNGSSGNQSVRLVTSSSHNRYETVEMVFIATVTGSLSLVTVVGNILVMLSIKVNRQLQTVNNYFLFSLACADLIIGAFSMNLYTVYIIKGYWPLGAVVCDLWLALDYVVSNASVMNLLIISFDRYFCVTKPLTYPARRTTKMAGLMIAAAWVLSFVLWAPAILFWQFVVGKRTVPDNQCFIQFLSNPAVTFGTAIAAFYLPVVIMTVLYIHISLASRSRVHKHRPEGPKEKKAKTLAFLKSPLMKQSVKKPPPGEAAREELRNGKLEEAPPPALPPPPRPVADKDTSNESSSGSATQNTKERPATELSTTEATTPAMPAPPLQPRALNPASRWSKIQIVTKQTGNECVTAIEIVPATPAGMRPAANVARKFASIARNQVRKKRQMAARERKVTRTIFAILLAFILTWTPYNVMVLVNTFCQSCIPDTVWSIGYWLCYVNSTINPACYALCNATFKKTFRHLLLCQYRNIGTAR
Experiment: Alphascreen Surefire phospho-ERK1/2 functional assay, M4
Type: cell-based
Conditions: CHO, read-out: % Emax cf. ACh, M4, CHO cells stably expressing human M4; relative to ACh
Attribute: Emax

>  <molecule>
CCOC(=O)N1CCC2(CC(N3CCC(C4CCCN4C(C)=O)CC3)C2)C1 (single isomer, unassigned) [2-3 Isomer 2]

>  <unit symbol>
%

>  <Emax>
89

$$$$
>  <molecule>
CCOC(=O)N1CCC2(CC(N3CCC(N4CCC[C@@H]4c4cccs4)CC3)C2)C1 (single isomer, unassigned) [2-131 Isomer 2]

>  <unit symbol>
%

>  <Emax>
108

$$$$
>  <molecule>
CCOC(=O)N1CCC2(CC(N3CCC(N4CCC[C@@H]4C(F)(F)F)CC3)C2)C1 (single isomer, unassigned) [2-104 Isomer 2]

>  <unit symbol>
%

>  <Emax>
111

$$$$
>  <molecule>
CCOC(=O)N1CCC2(CC(N3CCC(c4cccc(OC)n4)CC3)C2)C1 (single isomer, unassigned) [3-13 Isomer 2]

>  <unit symbol>
%

>  <Emax>
82

$$$$
>  <molecule>
CCOC(=O)N1CCC2(CC(N3CCC([C@@H]4CCCN4c4ccccn4)CC3)C2)C1 (single isomer, unassigned) [2-79 Isomer 2]

>  <unit symbol>
%

>  <Emax>
70

$$$$
>  <molecule>
CCOC(=O)N1CCC2(CC(N3CCC([C@@H]4CCCN4CCF)CC3)C2)C1 (single isomer, unassigned) [2-68 Isomer 2]

>  <unit symbol>
%

>  <Emax>
73

$$$$
>  <molecule>
CCOC(=O)N1CCC2(CC(N3CCC(c4nccn4CC#N)CC3)C2)C1 (single isomer, unassigned) [1-52 Isomer 2]

>  <unit symbol>
%

>  <Emax>
106

$$$$
>  <molecule>
CCOC(=O)N1CCC2(CC(N3CCC(C4CCCN4C(=O)C(F)(F)F)CC3)C2)C1 (single isomer, unassigned) [2-4 Isomer 2]

>  <unit symbol>
%

>  <Emax>
110

$$$$
>  <molecule>
CCOC(=O)N1CCC2(CC(N3CCC(c4nc(Cl)c(Cl)[nH]4)CC3)C2)C1 (single isomer, unassigned) [1-5 Isomer 2]

>  <unit symbol>
%

>  <Emax>
81

$$$$
